System: KP-2 (Pancreatic Carcinoma);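 also: after 72 h of two-drug dosing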
Assay: Bliss excess, mean over the matrix (fraction); higher = more synergy
Value kind: Bliss excess

INSERT INTO measurements (compound, system_name, assay_value) VALUES
  ('C[C@@H](c1ccc2nccn2c1)n1nnc2ncc(-c3cnn(C)c3)nc21 [Savolitinib] + CC1(C)CCC(CN2CCN(c3ccc(C(=O)NS(=O)(=O)c4ccc(NCC5CCOCC5)c([N+](=O)[O-])c4)c(Oc4cnc5[nH]ccc5c4)c3)CC2)=C(c2ccc(Cl)cc2)C1 [Venetoclax] (first compound max 1 µM, 7x7, partner max 1 µM)', 'KP-2 (Pancreatic Carcinoma)', -0.0518),
  ('CN(C)CCCOc1ccc(-c2ccc3ncc4c(c3c2)n(C2CCOCC2)c(=O)n4C)cn1 [AZD0156] + C=CCn1c(=O)c2cnc(Nc3ccc(N4CCN(C)CC4)cc3)nc2n1-c1cccc(C(C)(C)O)n1 [AZD1775] (first compound max 1 µM, partner max 1 µM)', 'KP-2 (Pancreatic Carcinoma)', -0.0331),
  ('NC1(C(=O)N[C@@H](CCO)c2ccc(Cl)cc2)CCN(c2ncnc3[nH]ccc23)CC1 [Capivasertib] + CC(=O)c1c(C)c2cnc(Nc3ccc(N4CCNCC4)cn3)nc2n(C2CCCC2)c1=O [Palbociclib] (first compound max 10 µM, 7x7, partner max 10 µM)', 'KP-2 (Pancreatic Carcinoma)', -0.0261);

====

System: KLE (Endometrial Carcinoma)
Test: combination Emax (second highest fraction inhibited in the dose matrix, 72 h); higher = more inhibition; extreme values may be limits of the assay
Value kind: combination Emax

INSERT INTO results (compound, system_name, assay_value) VALUES
  ('Cc1cc2ncnn2cc1Nc1ncc2c(n1)n(C1CCOCC1)c(=O)n2C [AZD7648] + C=CCn1c(=O)c2cnc(Nc3ccc(N4CCN(C)CC4)cc3)nc2n1-c1cccc(C(C)(C)O)n1 [AZD1775] (first compound max 10 µM, partner max 1 µM)', 'KLE (Endometrial Carcinoma)', 0.508),
  ('COc1nnc2ccc(N3CCC(c4ccc(OCCN5CCN(C)C(=O)[C@H]5C)cc4)CC3)nn12 [AZD5153] + CC1(C)CCC(CN2CCN(c3ccc(C(=O)NS(=O)(=O)c4ccc(NCC5CCOCC5)c([N+](=O)[O-])c4)c(Oc4cnc5[nH]ccc5c4)c3)CC2)=C(c2ccc(Cl)cc2)C1 [Venetoclax] (first compound max 1 µM, 7x7, partner max 1 µM)', 'KLE (Endometrial Carcinoma)', 0.609),
  ('Cn1cnc2c(F)c(Nc3ccc(Br)cc3Cl)c(C(=O)NOCCO)cc21 [Selumetinib] + C=CCn1c(=O)c2cnc(Nc3ccc(N4CCN(C)CC4)cc3)nc2n1-c1cccc(C(C)(C)O)n1 [AZD1775] (first compound max 10 µM, partner max 1 µM)', 'KLE (Endometrial Carcinoma)', 0.539),
  ('C[C@@H](c1ccc2nccn2c1)n1nnc2ncc(-c3cnn(C)c3)nc21 [Savolitinib] + CC1(C)CCC(CN2CCN(c3ccc(C(=O)NS(=O)(=O)c4ccc(NCC5CCOCC5)c([N+](=O)[O-])c4)c(Oc4cnc5[nH]ccc5c4)c3)CC2)=C(c2ccc(Cl)cc2)C1 [Venetoclax] (first compound max 1 µM, 7x7, partner max 1 µM)', 'KLE (Endometrial Carcinoma)', 0.0864),
  ('CC(=O)c1c(C)c2cnc(Nc3ccc(N4CCNCC4)cn3)nc2n(C2CCCC2)c1=O [Palbociclib] + CN(CC[C@H](CSC1=CC=CC=C1)NC2=C(C=C(C=C2)S(=O)(=O)NC(=O)C3=CC=C(C=C3)N4CCC(CC4)[C@H](C5=CC=CC=C5C6=CC=C(C=C6)Cl)O)S(=O)(=O)C(F)(F)F)CCO [AZD4320] (first compound max 10 µM, 7x7, partner max 1 µM)', 'KLE (Endometrial Carcinoma)', 0.355),
  ('Cn1cnc2c(F)c(Nc3ccc(Br)cc3Cl)c(C(=O)NOCCO)cc21 [Selumetinib] + CC(C)n1c(=O)n(C)c2cnc3cc(F)c(-c4ccc(OCCCN5CCCCC5)nc4)cc3c21 [AZD1390] (first compound max 10 µM, 7x7, partner max 0.3 µM)', 'KLE (Endometrial Carcinoma)', 0.178),
  ('CCN(CCO)CCCOc1ccc2c(Nc3cc(CC(=O)Nc4cccc(F)c4)[nH]n3)ncnc2c1 [AZD2811] + O=C(c1cc(Cc2n[nH]c(=O)c3ccccc23)ccc1F)N1CCN(C(=O)C2CC2)CC1 [Olaparib] (first compound max 1 µM, 7x7, partner max 10 µM)', 'KLE (Endometrial Carcinoma)', 0.16);
